Where these numbers come from: patent US10670605B2

Assign isoTOP-ABPP reactivity profile ratio, O14980_C34 to each entry below.
molecular target: XPO1 C34 (O14980) (Homo sapiens, UniProt O14980); assay: Competitive isoTOP-ABPP, cell lysates; type: binding; conditions: 500 μm, in-vitro_ramos_231
Sequence (O14980 whole entry): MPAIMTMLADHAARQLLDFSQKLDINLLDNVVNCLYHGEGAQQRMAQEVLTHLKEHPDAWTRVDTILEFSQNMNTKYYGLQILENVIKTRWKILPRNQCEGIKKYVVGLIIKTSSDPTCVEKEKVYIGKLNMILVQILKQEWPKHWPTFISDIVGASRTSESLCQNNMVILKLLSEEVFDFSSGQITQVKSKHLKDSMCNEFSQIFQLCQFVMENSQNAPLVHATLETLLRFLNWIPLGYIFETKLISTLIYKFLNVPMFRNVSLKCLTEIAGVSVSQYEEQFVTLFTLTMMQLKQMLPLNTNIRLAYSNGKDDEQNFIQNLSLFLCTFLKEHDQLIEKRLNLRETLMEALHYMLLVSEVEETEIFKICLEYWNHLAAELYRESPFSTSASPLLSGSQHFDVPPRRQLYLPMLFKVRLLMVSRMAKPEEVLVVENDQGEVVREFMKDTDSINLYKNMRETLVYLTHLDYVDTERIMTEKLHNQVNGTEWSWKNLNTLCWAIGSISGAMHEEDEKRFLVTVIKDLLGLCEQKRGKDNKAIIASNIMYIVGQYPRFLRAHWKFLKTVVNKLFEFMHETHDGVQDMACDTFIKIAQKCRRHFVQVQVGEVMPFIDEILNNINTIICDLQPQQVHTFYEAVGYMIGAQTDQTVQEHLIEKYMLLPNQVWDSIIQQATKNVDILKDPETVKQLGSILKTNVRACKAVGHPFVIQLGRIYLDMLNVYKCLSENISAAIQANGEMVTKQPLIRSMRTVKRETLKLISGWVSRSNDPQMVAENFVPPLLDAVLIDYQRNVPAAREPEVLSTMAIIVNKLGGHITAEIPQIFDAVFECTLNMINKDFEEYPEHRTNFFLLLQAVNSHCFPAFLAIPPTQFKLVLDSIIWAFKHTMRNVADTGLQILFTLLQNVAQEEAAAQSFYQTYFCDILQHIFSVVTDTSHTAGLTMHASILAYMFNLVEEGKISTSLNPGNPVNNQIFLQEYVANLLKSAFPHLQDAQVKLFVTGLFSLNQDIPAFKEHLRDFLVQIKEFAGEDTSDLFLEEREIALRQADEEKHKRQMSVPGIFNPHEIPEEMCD
Answers are plain numbers.

Some solved cases for reference:
Molecule	Recorded result
O=C(CCl)Nc1ccc(-c2ccccc2)cc1	1.0
O=C(CCl)Nc1cccc2ncccc12	0.9

# batch size: 4; output isoTOP-ABPP reactivity profile ratio, O14980_C34 per entry
1. CCCN(C(=O)CCl)c1c(N)n(CCC)c(=O)[nH]c1=O
2. C=CC(=O)N(c1ccccc1)C1CCCCC1
3. COc1cc(NC(=O)CCl)cc(OC)c1
4. O=C(CCl)N1CCc2cc(Br)ccc21

**A:**
[0.9, 1.0, 1.1, 1.2]

Each molecule below has a reported value. Please supply its isoTOP-ABPP reactivity profile ratio, O14980_C34.
1. Cc1ccc(C(F)(F)F)cc1NC(=O)CCl
2. Cc1ncc(CO)c(CNC(=O)CCl)c1O
3. O=C(CCl)NC1C(O)OC(CO)C(O)C1O (mixture of isomers)
4. CC1CCc2ccccc2N1C(=O)CCl (centres unmarked)
5. C=CC(=O)N1CCC(Cc2ccccc2)CC1

**A:**
1.9
1.1
0.8
1.8
0.9
